pKi: −log10 of the molar value.
The listing below reports pKi for compounds tested on 5-hydroxytryptamine receptor 1E (Homo sapiens).
Sequence (P28566 whole entry): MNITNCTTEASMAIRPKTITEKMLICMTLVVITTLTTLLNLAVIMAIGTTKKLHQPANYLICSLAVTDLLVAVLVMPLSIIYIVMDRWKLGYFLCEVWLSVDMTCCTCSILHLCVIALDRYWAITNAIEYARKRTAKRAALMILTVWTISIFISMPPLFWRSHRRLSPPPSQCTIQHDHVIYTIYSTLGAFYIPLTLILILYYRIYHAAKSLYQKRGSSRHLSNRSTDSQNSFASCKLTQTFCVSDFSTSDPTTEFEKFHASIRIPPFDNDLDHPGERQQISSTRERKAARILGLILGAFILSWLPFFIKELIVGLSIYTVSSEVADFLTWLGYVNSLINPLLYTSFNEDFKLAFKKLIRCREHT

Some solved cases for reference:
{"columns": ["COMPOUND", "TARGET DESC", "pKi"],
 "data": [
  ["NCCc1c[nH]c2ccc(C(N)=O)cc12 [[3H]-5-carboxamidotryptamine]", "5-hydroxytryptamine receptor 1E (Homo sapiens)", "< 5.00"],
  ["O=C(c1ccc(F)cc1)C1CCN(CCn2c(=O)[nH]c3ccccc3c2=O)CC1", "5-hydroxytryptamine receptor 1E (Homo sapiens)", "< 5.00"],
  ["CC(C)NCC(O)COc1cccc2[nH]ccc12 (stereo not drawn)", "5-hydroxytryptamine receptor 1E (Homo sapiens)", "< 5.00"],
  ["CC(CO)NC(=O)C1C=C2c3cccc4[nH]cc(c34)CC2N(C)C1 (stereo not drawn)", "5-hydroxytryptamine receptor 1E (Homo sapiens)", 7.06],
  ["COc1cc(N)c(Cl)cc1C(=O)NC1CN2CCC1CC2 (stereo not drawn) [ZACOPRIDE,R]", "5-hydroxytryptamine receptor 1E (Homo sapiens)", "< 5.00"],
  ["CCC(=O)c1ccc(N)cc1", "5-hydroxytryptamine receptor 1E (Homo sapiens)", "< 5.00"],
  ["COC(=O)[C@@H]1[C@H]2C[C@H]3c4[nH]c5ccccc5c4CCN3C[C@@H]2CC[C@@H]1O", "5-hydroxytryptamine receptor 1E (Homo sapiens)", 5.46]
]}

API: the following record is the query input.
Request: Item: Cn1cc(CCN)c2cc(O)ccc21 Test system: 5-hydroxytryptamine receptor 1E (Homo sapiens) Read-out: pKi Value: ?
Response: 6.92
